Ratio reference
test: Selectivity ratio for binding to factor I (IC50) and thrombin (Ki)
Please give the numeric answer without any surrounding text.

molecule: NCCCCC(NC(=O)CN(CC1(c2ccccc2)CCCC1)C(=O)CCc1ccccc1)B(O)O (centres undefined)
Ratio: 7920
//
molecule: N=C(N)NCCCC(NC(=O)CN(CC1(c2ccccc2)CC1)C(=O)CCc1ccccc1)B(O)O (centres undefined)
Ratio: 9000

State, in one line, measured Ratio of CC(C)(CN(CC(=O)NC(CCC/N=C/N)B(O)O)C(=O)CCc1ccccc1)c1ccccc1 (centres undefined)
5750

Tell me measured Ratio for Cc1cc(C)cc(C(C)(C)CN(CC(=O)NC(CCCCN)B(O)O)C(=O)CCc2ccccc2)c1 (centres undefined) please.
5980
